# assay-notes: in vivo
# cond: mouse, ip, 20 mg/kg
recorded-endpoint: half-life (h)
Give bare numbers, in h.

I would be grateful if you could share the reported half-life for Cc1cc(C)nc(Nc2ncc(C(=O)NCCc3c(C)[nH]c4c(F)cccc34)cn2)c1 [Compound 24aa] . 5.4

---

# cond: pH 2
recorded-endpoint: Solubility in SGF

Hey, quick one: what's Solubility in SGF for each of these?
1. CC(=O)Nc1ccc(-c2ccc(C(=O)NCCc3c(C)[nH]c4ccccc34)cn2)cc1
2. COc1ccccc1-c1ccc(C(=O)NCCc2c(C)[nH]c3ccccc23)cn1
3. Cc1[nH]c2ccccc2c1CCNC(=O)c1ccc(-c2ccccc2F)nc1

>100 µM
>100 µM
>100 µM

---

I'd be grateful if you could share measured Kb for these entries.
# experimental-target: human EP2 receptor (Homo sapiens, UniProt P43116)
# Construct: expressed in transfected cells
# Sequence (P43116 whole entry): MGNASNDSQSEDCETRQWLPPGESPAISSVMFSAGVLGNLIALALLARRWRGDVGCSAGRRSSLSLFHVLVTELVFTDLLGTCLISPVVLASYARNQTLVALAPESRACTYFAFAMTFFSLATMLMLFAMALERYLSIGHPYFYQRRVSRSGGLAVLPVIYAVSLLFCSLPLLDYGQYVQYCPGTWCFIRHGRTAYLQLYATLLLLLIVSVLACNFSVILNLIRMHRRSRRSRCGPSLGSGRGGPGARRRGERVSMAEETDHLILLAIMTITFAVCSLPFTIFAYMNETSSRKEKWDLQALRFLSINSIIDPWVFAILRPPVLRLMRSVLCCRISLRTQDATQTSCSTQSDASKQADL
# assay-notes: Cell-based cAMP TR-FRET assay, Schild KB on EP2
# cond: Schild KB; agonist PGE2; antagonist concentration 1 μM; C6G cells expressing human EP2
Be sure to follow the number with its unit.

Consider the reported Kb for these compounds:
1. Cc1ccc(Nc2ncc(C(=O)NCCc3c(C)[nH]c4ccccc34)cn2)c(C)n1 [Compound 20r]: 88.1 nM
2. CC(=O)c1ccc(Nc2ncc(C(=O)NCCc3c(C)[nH]c4ccccc34)cn2)nc1 [Compound 20l]: 166 nM

Hey, quick one: what's Kb for each of these?
1. Cc1cc(C)nc(Nc2ncc(C(=O)NCCc3c(C)[nH]c4ccc(Cl)cc34)cn2)c1 [Compound 24b]
2. COc1cccc(Nc2ncc(C(=O)NCCc3c(C)[nH]c4ccccc34)cn2)n1 [Compound 20h]

["28.3 nM", "7.8 nM"]

---

I'd be grateful if you could share measured S.I (IP/EP2) for these entries.
# experimental-target: human IP receptor (Homo sapiens, UniProt P43119)
# Sequence (P43119 whole entry): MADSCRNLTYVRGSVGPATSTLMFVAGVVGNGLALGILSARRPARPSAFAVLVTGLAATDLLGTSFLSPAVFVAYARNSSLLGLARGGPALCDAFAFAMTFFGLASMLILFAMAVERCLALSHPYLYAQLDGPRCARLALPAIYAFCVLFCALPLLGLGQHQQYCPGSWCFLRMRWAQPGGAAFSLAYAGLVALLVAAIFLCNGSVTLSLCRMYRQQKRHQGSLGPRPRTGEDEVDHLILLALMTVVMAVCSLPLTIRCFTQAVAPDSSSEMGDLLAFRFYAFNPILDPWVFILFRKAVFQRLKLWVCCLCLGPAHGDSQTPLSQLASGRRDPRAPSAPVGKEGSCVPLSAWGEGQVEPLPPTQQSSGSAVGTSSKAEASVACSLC
# assay-notes: Cell-based cAMP TR-FRET assay on IP (agonist iloprost)
# cond: selectivity index IP KB/EP2 KB, fold

1. COc1cccc(Nc2ncc(C(=O)NCCc3c(C)[nH]c4ccccc34)cn2)n1 [Compound 20h]: >1280

Hey, quick one: what's S.I (IP/EP2) for each of these?
1. Cc1[nH]c2ccccc2c1CCNC(=O)c1cnc(Nc2cccnc2)nc1 [Compound 20q]
2. Cc1[nH]c2ccccc2c1CCNC(=O)c1cnc(Nc2cc(F)ccn2)nc1 [Compound 20c]
3. Cc1cc(C)nc(Nc2ncc(C(=O)NCCc3c(C)[nH]c4c(F)cc(F)cc34)cn2)c1 [Compound 24c]
4. COc1ccccc1-c1ncc(C(=O)NCCc2c(C)[nH]c3ccccc23)cn1 [Compound 14a]
5. Cc1cc(C)nc(Nc2ncc(C(=O)NCCc3c(C)[nH]c4ccc(Cl)cc34)cn2)c1 [Compound 24b]

1. >1200
2. >1500
3. >500
4. 730
5. >350

Hey, quick one: what's S.I (IP/EP2) for each of these?
1. Cc1[nH]c2ccccc2c1CCNC(=O)c1cnc(Nc2ccccn2)nc1 [Compound 20a]
2. Cc1cccc(Nc2ncc(C(=O)NCCc3c(C)[nH]c4ccccc34)cn2)n1 [Compound 20e]
3. Cc1cc(C)nc(Nc2ncc(C(=O)NCCc3c(C)[nH]c4ccc(F)cc34)cn2)c1 [Compound 24a]

[">900", ">1500", 770]

---

# experimental-target: human EP2 receptor (Homo sapiens, UniProt P43116)
# Construct: expressed in transfected cells
# assay-notes: Cell-based cAMP TR-FRET assay, Schild KB on EP2
# cond: Schild KB; agonist PGE2; antagonist concentration 1 μM; C6G cells expressing human EP2
Kind request: treat 20 nM as inclusive, so Kb at 20 nM or higher is label 1, anything lower is label 0.

Check out these entries, answers already filled in.
1. Cc1cc(C)nc(Nc2ncc(C(=O)NCCc3c(C)[nH]c4c(F)cccc34)cn2)c1 [Compound 24aa]: label 0
2. Cc1[nH]c2ccccc2c1CCNC(=O)c1ccc(N2CCOCC2)nc1: label 1
3. Cc1cc(C)nc(Nc2ncc(C(=O)NCCc3c(C(F)(F)F)[nH]c4ccccc34)cn2)c1 [Compound 24f]: label 1

Pending compound:
Does Cc1[nH]c2ccccc2c1CCNC(=O)c1cnc(Nc2cccnc2)nc1 [Compound 20q] have a reported Kb of at least 20 nM? label 0

---

# assay-notes: in vivo
# cond: C57BL/6, mouse, ip, 10 mg/kg
recorded-endpoint: half-life

Hey, quick one: what's half-life for each of these?
1. COc1ccccc1-c1ncc(C(=O)NCCc2c(C)[nH]c3ccccc23)cn1 [Compound 14a]
2. COc1ccccc1-c1ccc(C(=O)NCCc2c(C)[nH]c3ccccc23)cn1 [Compound 8c]
3. COc1cc(OC)cc(-c2ccc(C(=O)NCCc3c(C)[nH]c4ccccc34)cn2)c1 [Compound 8g]

["< 1 h", "< 1 h", "< 1 h"]

---

# cond: pH 2
Marks after values point to notes of the source that are not given here.
recorded-endpoint: Solubility in SGF

Consider the reported Solubility in SGF for these molecules:
1. COc1ccccc1-c1ccc(C(=O)NCCc2c(C)[nH]c3ccccc23)cc1F [Compound 14b]: 10^d μM
2. COc1cc(OC)cc(-c2ccc(C(=O)NCCc3c(C)[nH]c4ccccc34)cn2)c1: >100 µM
3. CC(=O)Nc1ccc(-c2ccc(C(=O)NCCc3c(C)[nH]c4ccccc34)nc2)cc1 [Compound 11c]: 10 µM

Hey, quick one: what's Solubility in SGF for each of these?
1. Cc1[nH]c2ccccc2c1CCNC(=O)c1ccc(-c2ccccc2)nc1
2. COc1cc(OC)cc(-c2ccc(C(=O)NCCc3c(C)[nH]c4ccccc34)nc2)c1 [Compound 11b]
3. Cc1[nH]c2ccccc2c1CCNC(=O)c1ccc(-c2ccccc2O)nc1
4. COc1cccc(-c2ccc(C(=O)NCCc3c(C)[nH]c4ccccc34)cn2)c1
5. COc1cccc(-c2ccc(C(=O)NCCc3c(C)[nH]c4ccccc34)nc2)c1 [Compound 11a]

1: >100 µM; 2: 10 µM; 3: 50^c μM; 4: >100 µM; 5: 14 µM

---

# assay-notes: in vitro
# cond: mouse, pooled liver microsomes
recorded-endpoint: half-life at 1 μM (min)
Give bare numbers, in min.

I would be grateful if you could share the reported half-life at 1 μM for Cc1cc(C)nc(Nc2ncc(C(=O)NCCc3c(C)[nH]c4c(F)cccc34)cn2)c1 [Compound 24aa] . 23

---

# Tested on: C6glioma cells
# cond: rat
recorded-endpoint: CC50 (nM)
Answers are plain numbers, in nM.

I would be grateful if you could share the reported CC50 for COc1cccc2c1C(=O)c1c(O)c3c(c(O)c1C2=O)C[C@@](O)(C(=O)CO)C[C@@H]3O[C@H]1C[C@H](N)[C@H](O)[C@H](C)O1 [doxorubucin, reference compound] . 900

---

# assay-notes: physchem
# cond: water, thermodynamic from solid
recorded-endpoint: solubility

I would be grateful if you could share the reported solubility for Cc1cc(C)nc(Nc2ncc(C(=O)NCCc3c(C)[nH]c4c(F)cccc34)cn2)c1 [Compound 24aa] . 1100 to 1200 µg/mL

---

# assay-notes: in vivo
# cond: C57BL/6, mouse
recorded-endpoint: Kp at 0.5 h

I would be grateful if you could share the reported Kp at 0.5 h for Cc1cc(C)nc(Nc2ncc(C(=O)NCCc3c(C)[nH]c4c(F)cccc34)cn2)c1 [Compound 24aa] . 0.4

---

# assay-notes: Solubility in simulated gastric fluid (SGF) by nephelometry
# cond: pH 2, simulated gastric fluid, kinetic from dmso stock
recorded-endpoint: solubility

I would be grateful if you could share the reported solubility for Cc1cc(C)nc(Nc2ncc(C(=O)NCCc3c(C)[nH]c4ccccc34)cn2)c1 [Compound 20o] . > 100 µM

---

# assay-notes: physchem
# cond: water, thermodynamic from solid
recorded-endpoint: solubility at 24 h (µM)
Numbers only, in µM.

I would be grateful if you could share the reported solubility at 24 h for Cc1cc(C)nc(Nc2ncc(C(=O)NCCc3c(C)[nH]c4c(F)cccc34)cn2)c1 [Compound 24aa] . 2640

---

I'd be grateful if you could share measured Aqueous Solubility for these entries.
# assay-notes: Kinetic aqueous solubility in PBS by nephelometry
# cond: PBS buffer (pH 7.4) with 1% DMSO, nephelometry
Numbers only, in µM.

1) Cc1cc(C)nc(Nc2ncc(C(=O)NCCc3c(C)nn4ccccc34)cn2)c1 [Compound 24g]: 70

Hey, quick one: what's Aqueous Solubility for each of these?
1. COc1cccc(-c2ccc(C(=O)NCCc3c(C)[nH]c4ccccc34)nc2)c1 [Compound 11a]
2. Cc1[nH]c2ccccc2c1CCNC(=O)c1ccc(-c2ccccc2)nc1
3. Cc1cc(C)nc(Nc2ncc(C(=O)NCCc3c(C(F)(F)F)[nH]c4ccccc34)cn2)c1 [Compound 24f]
4. Cc1ccc(Nc2ncc(C(=O)NCCc3c(C)[nH]c4ccccc34)cn2)c(C)n1 [Compound 20r]
5. Cc1[nH]c2ccccc2c1CCNC(=O)c1cnc(Nc2cc(C(C)(C)C)ccn2)nc1 [Compound 20d]
6. COc1ccccc1-c1ccc(C(=O)NCCc2c(C)[nH]c3ccccc23)cc1 [Compound 14c]
7. Cc1[nH]c2ccccc2c1CCNC(=O)c1ccc(-c2ccccc2O)nc1

1: 14; 2: 25; 3: 45; 4: 100; 5: 5; 6: 5; 7: 8
